Tested on: 60 human tumor cell lines (NCI60)
Method: NCI60 five-dose screen, whole panel and sub-panel means
Format: cell-based
Details: Homo sapiens, 60 cell, mean over all 60 cell lines; read-out: GI50 Mean
Field: GI50. Provide a value for each of the compounds that follow.

Required: GI50, one value per compound below.
1. CC[C@]12C=CCN3CC[C@@]4(c5ccc(OC)cc5N(C)[C@H]4[C@@](O)(C(=O)OC)[C@@H]1OC(=O)CCCN1CCN(c4ccc(C(F)(F)F)cc4)CC1)[C@@H]32
2. CC[C@]12C=CCN3CC[C@@]4(c5ccc(OC)cc5N(C)[C@H]4[C@@](O)(C(=O)OC)[C@@H]1OC(=O)CCC(=O)N1CCN(C(c4ccc(F)cc4)c4ccc(F)cc4)CC1)[C@@H]32
3. CC[C@]12C=CCN3CC[C@@]4(c5ccc(OC)cc5N(C)[C@H]4[C@@](O)(C(=O)OC)[C@@H]1OC(=O)CCC(=O)N1CCN(c4ccc(C(F)(F)F)cc4)CC1)[C@@H]32

Result string:
1: < 4 µM; 2: < 4 µM; 3: < 4 µM
